// values below are reported inhibition at 10 min, 1 µM
Target: CYP3A4 (Homo sapiens, UniProt P08684)
Construct: containing 0.1 mg/mL human liver microsomes; from tissue; host or cells: human liver microsomes
Sequence (P08684 whole entry): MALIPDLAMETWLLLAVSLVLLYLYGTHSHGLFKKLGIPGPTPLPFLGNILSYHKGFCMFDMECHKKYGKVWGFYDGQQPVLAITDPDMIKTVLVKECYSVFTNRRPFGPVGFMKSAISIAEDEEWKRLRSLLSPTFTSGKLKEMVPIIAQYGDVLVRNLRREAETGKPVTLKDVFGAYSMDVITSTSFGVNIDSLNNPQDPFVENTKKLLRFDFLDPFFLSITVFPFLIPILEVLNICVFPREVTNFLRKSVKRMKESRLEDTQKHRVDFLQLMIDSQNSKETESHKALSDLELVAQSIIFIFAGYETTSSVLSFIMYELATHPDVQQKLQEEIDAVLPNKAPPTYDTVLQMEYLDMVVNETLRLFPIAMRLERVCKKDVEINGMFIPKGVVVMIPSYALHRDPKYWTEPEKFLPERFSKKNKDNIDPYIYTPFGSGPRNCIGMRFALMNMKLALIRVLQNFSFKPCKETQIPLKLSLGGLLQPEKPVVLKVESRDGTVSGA
Experiment: CYP3A4 (midazolam) inhibition in human liver microsomes
Format: in vitro ADME
Details: probe midazolam; human liver microsomes 0.1 mg/mL, midazolam substrate, 1 μM test compound, 37° C. 10 min

{"columns": ["MOLECULE", "inhibition at 10 min, 1 µM / %"],
 "data": [
  ["Cc1cn(C[C@]23CCC(C)(C)C[C@H]2[C@H]2C(=O)C=C4[C@@]5(C)C=C(C#N)C(=O)C(C)(C)[C@@H]5CC[C@@]4(C)[C@]2(C)CC3)nn1 [Compound T48]", 29.8],
  ["CC1(C)CC[C@]2(n3cc(C(F)F)nn3)CC[C@]3(C)[C@H](C(=O)C=C4[C@@]5(C)C=C(C#N)C(=O)C(C)(C)[C@@H]5CC[C@]43C)[C@@H]2C1 [Compound T44]", 29.1],
  ["CC1(C)CC[C@]2(CNC(=O)C3CC3)CC[C@]3(C)[C@H](C(=O)C=C4[C@@]5(C)C=C(C#N)C(=O)C(C)(C)[C@@H]5CC[C@]43C)[C@@H]2C1 [Compound T4]", 30.7]
]}
